The measured values listed here are drawn from paper PMC10786891.

study_target: T1, EsCas13d, nuclease-dead (Eubacterium siraeum, UniProt B0MS50, R295A;H300A;R849A;H854A)
T1 sequence: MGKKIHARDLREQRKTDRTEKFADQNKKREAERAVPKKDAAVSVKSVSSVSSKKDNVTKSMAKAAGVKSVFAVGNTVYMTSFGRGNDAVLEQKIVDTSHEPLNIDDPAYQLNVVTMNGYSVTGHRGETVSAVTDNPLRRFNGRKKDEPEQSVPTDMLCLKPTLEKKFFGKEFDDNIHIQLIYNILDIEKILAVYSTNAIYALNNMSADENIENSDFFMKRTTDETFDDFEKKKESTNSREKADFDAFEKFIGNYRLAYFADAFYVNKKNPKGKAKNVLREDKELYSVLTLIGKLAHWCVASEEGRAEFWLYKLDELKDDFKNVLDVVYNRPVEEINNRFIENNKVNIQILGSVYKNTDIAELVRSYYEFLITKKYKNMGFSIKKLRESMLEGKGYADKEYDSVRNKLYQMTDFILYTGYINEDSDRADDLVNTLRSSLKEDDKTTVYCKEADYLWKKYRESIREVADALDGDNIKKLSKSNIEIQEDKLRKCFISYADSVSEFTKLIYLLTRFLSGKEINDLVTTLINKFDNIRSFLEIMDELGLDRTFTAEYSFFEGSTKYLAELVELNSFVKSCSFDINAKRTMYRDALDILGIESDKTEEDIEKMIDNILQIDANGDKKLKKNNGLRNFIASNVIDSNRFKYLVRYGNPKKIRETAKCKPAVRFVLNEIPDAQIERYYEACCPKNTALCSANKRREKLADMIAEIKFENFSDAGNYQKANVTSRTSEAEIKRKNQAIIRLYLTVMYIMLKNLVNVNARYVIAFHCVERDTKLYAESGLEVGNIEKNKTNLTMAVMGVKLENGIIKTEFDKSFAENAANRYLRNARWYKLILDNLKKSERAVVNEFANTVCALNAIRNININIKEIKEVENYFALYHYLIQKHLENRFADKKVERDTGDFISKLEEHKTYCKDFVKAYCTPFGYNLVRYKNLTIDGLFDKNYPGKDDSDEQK
assay_remarks: crRNA (strand 1, pre-loaded); Mg2+; 40 mM Tris-HCl pH 7.5, 150 mM NaCl, 6 mM MgCl2, 1 mM DTT, 0.1% Tween-20, 0.2 mg/ml BSA; 25 C; 10 min per concentration, then washed
settings: tags: His6-TwinStrep-SUMO cleaved; N-terminal SNAP kept (SNAP-Surface 488); label: 3' end held by stalled T7 RNA polymerase
pKd: −log10 of the molar value.
Class YES: pKd at least 8. Class NO: pKd below 8.

binder	qualitative_label
target 1 U3G,G12A (mixed) RNA 1: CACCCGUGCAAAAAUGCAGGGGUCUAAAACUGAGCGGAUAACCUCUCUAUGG RNA 2: GGGAAUGGAUCCACAUCUACGAAUUCGUACCAUAGAGAGAUUAUCCGCGCACCGAGAUCGGAAGAGCACACGU	YES
target 2 MT 5'PFS UUG 3'PFS UUA (mixed) RNA 1: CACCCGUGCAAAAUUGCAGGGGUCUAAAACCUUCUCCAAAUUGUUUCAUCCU RNA 2: GGGAAUGGAUCCACAUCUACGAAUUCUUGAGGAUGAAACAAUUUGGAGAAGUUAAGAUCGGAAGAGCACACGU	NO
target 2 MT 5'PFS GUU 3'PFS CUG (mixed) RNA 1: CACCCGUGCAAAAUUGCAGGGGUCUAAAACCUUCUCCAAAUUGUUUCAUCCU RNA 2: GGGAAUGGAUCCACAUCUACGAAUUCGUUAGGAUGAAACAAUUUGGAGAAGCUGAGAUCGGAAGAGCACACGU	NO

pKd >= 8 for target 1 U3A,A18U (mixed) RNA 1: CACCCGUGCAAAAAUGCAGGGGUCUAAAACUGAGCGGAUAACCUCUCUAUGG RNA 2: GGGAAUGGAUCCACAUCUACGAAUUCGUACCAUUGAGAGGUUAUCCGCACACCGAGAUCGGAAGAGCACACGU ?
NO

pKd >= 8 for target 1 insC 3' of 17,insC 3' of 11 (mixed) RNA 1: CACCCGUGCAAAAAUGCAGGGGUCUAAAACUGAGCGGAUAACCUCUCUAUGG RNA 2: GGGAAUGGAUCCACAUCUACGAAUUCGUACCAUAGCAGAGGUCUAUCCGCUCACCGAGAUCGGAAGAGCACACGU ?
NO
